For each record, write down the corresponding pIC50.
- assay_target: human CSNK1D (Homo sapiens, UniProt P48730)
- Construct: expressed in transfected cells
- Sequence (P48730 whole entry): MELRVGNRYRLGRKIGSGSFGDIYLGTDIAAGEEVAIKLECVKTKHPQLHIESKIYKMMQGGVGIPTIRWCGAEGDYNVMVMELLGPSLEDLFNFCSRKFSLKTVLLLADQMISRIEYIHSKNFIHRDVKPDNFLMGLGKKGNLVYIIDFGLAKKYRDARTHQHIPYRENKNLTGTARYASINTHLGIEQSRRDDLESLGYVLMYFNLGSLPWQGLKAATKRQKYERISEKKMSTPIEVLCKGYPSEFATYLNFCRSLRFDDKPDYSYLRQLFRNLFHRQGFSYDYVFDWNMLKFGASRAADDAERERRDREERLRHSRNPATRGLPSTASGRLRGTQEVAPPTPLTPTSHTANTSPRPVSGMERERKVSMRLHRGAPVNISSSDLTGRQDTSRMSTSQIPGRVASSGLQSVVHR
- experiment_notes: Whole Cell nBRET CSNK1D Binding Assay
- measurement_context: living CHO cells stably expressing human CSNK1D tagged with nanoluciferase; NanoBret tracer 130 nM; 2 hours at 37 C
Remember, pIC50 is on a log scale: it is -log10 of the molar concentration.

Fill in reported pIC50 for this entry: Cc1cc(-c2c(-c3ccc(F)cc3)nn3c2OCC2(C3)CC2(F)F)c2cn[nH]c2n1 (single isomer, unassigned) [Example 475]
7.44

Fill in reported pIC50 for this entry: Cc1cc(-c2c(-c3ccc(F)cn3)nn3c2COCC3(C)C)c2cn[nH]c2n1 [Example 123]
5.63

Fill in reported pIC50 for this entry: Fc1ccc(-c2nn3c(c2-c2ccnc4[nH]ncc24)CC(F)(F)CC3)cc1 [Example 46]
7.09

Fill in reported pIC50 for this entry: CC[C@]1(C)Cn2nc(-c3ccc(F)cn3)c(-c3ccnc4[nH]ncc34)c2CO1 (single isomer, unassigned) [Example 169]
6.87

Fill in reported pIC50 for this entry: [2H]C([2H])([2H])C1(C([2H])([2H])[2H])Cn2nc(-c3ccc(F)cn3)c(-c3c(F)c(C)nc4[nH]nc(Cl)c34)c2CO1 [Example 408]
7.59

Fill in reported pIC50 for this entry: Cc1cc(-c2c(-c3ccc(F)cn3)nn3c2COCC3)c2cn[nH]c2n1 [Example 79]
6.64

Fill in reported pIC50 for this entry: Fc1ccc(-c2nn3c(c2-c2ccnc4[nH]ncc24)COC2(C3)CC2(F)F)nc1 (single isomer, unassigned) [Example 434]
5.08

Fill in reported pIC50 for this entry: [2H]C([2H])([2H])C1(C([2H])([2H])[2H])Cn2nc(-c3ccc(F)cc3)c(-c3nc(C)nc4[nH]ncc34)c2CO1 [Example 410]
7.77

Fill in reported pIC50 for this entry: C[C@@H]1CCc2c(-c3ccnc4[nH]ncc34)c(-c3ccc(F)cc3)nn21 [Example 16]
7.29

Fill in reported pIC50 for this entry: Fc1ccc(-c2nn3c(c2-c2ccnc4[nH]ccc24)CCCC3)cc1 [Example 33]
7.70

Fill in reported pIC50 for this entry: Fc1ccc(-c2nn3c(c2-c2ccnc4[nH]ncc24)CO[C@@H](C(F)(F)F)C3)cc1 [Example 101]
7.62

Fill in reported pIC50 for this entry: CC1(C(F)(F)F)Cn2nc(-c3ccc(F)cc3)c(-c3ccnc4[nH]ncc34)c2CO1 (single isomer, unassigned) [Example 417]
8.52

Fill in reported pIC50 for this entry: C[C@@]1(CF)CCc2c(-c3c(F)cnc4[nH]ncc34)c(-c3ccc(F)cn3)nn2C1 (single isomer, unassigned) [Example 292]
7.68

Fill in reported pIC50 for this entry: Cc1cc(-c2c(-c3ncc(F)cc3F)nn3c2OCCC3)c2cn[nH]c2n1 [Example 189]
6.49

Fill in reported pIC50 for this entry: Fc1ccc(-c2nn3c(c2-c2ccnc4[nH]ncc24)C[C@@H]2C[C@@H]23)cc1 [Example 268]
8.30

Fill in reported pIC50 for this entry: Cc1cc(-c2c(-c3ccc(F)cc3)nn3c2[C@@H]2CC[C@H]3C2)c2cn[nH]c2n1 (single isomer, unassigned) [Example 364]
6.99

Fill in reported pIC50 for this entry: Cc1cc(-c2c(-c3ccc(F)cc3)nn3c2OC[C@H](C)C3)c2cn[nH]c2n1 (single isomer, unassigned) [Example 194]
7.96

Fill in reported pIC50 for this entry: Fc1ccc(-c2nn3c(c2-c2ccnc4[nH]ncc24)C[C@@H]2[C@H](C3)C2(F)F)cc1 (stereo in doubt) [Example 362]
8.52

Fill in reported pIC50 for this entry: C[C@@]1(C(F)(F)F)Cn2nc(-c3ccc(F)cn3)c(-c3ccnc4[nH]ncc34)c2CO1 (single isomer, unassigned) [Example 177]
7.36

Fill in reported pIC50 for this entry: Fc1ccc(-c2nn3c(c2-c2ccnc4[nH]ncc24)CCC(F)(F)C3)nc1 [Example 44]
6.53

Fill in reported pIC50 for this entry: Fc1ccc(-c2nn3c(c2-c2ccn4nccc4c2)CC[C@@H]2[C@H]3C2(F)F)cc1 (stereo in doubt) [Example 354]
7.15

Fill in reported pIC50 for this entry: Fc1cncc(-c2nn3c(c2-c2ccnc4[nH]ncc24)COCC3)c1 [Example 76]
5.53

Fill in reported pIC50 for this entry: Cc1nc2[nH]nc(C)c2c(-c2c(-c3ccc(F)cn3)nn3c2CC[C@@H]2C[C@@H]23)c1F (single isomer, unassigned) [Example 346]
6.76

Fill in reported pIC50 for this entry: Cc1nc2[nH]nc(C)c2c(-c2c(-c3ccc(F)cn3)nn3c2CC[C@]2(C3)CC2(F)F)c1F (single isomer, unassigned) [Example 334]
5.81

Fill in reported pIC50 for this entry: Cc1nc2[nH]ncc2c(-c2c(-c3ccc(F)cn3)nn3c2CC[C@@]2(C3)CC2(F)F)c1F (single isomer, unassigned) [Example 331]
7.05

Fill in reported pIC50 for this entry: CCn1ncc2cc(-c3c(-c4ccc(F)cn4)nn4c3OCC(C)(C)C4)cnc21 [Example 452]
6.24

Fill in reported pIC50 for this entry: COCC1CCc2c(-c3cc(C)nc4[nH]ncc34)c(-c3ccc(F)cn3)nn2C1 (single isomer, unassigned) [Example 296]
6.62

Entry source: patent US20230339970A1
